Provenance of the data: patent US20240116985A1

# measurement.target: T1, full-length beta-Catenin (Uniprot ID P35222) (Homo sapiens (Human), UniProt P35222 2-781)
# T1 construct: also called bCat; B-Catenin
# T1 sequence: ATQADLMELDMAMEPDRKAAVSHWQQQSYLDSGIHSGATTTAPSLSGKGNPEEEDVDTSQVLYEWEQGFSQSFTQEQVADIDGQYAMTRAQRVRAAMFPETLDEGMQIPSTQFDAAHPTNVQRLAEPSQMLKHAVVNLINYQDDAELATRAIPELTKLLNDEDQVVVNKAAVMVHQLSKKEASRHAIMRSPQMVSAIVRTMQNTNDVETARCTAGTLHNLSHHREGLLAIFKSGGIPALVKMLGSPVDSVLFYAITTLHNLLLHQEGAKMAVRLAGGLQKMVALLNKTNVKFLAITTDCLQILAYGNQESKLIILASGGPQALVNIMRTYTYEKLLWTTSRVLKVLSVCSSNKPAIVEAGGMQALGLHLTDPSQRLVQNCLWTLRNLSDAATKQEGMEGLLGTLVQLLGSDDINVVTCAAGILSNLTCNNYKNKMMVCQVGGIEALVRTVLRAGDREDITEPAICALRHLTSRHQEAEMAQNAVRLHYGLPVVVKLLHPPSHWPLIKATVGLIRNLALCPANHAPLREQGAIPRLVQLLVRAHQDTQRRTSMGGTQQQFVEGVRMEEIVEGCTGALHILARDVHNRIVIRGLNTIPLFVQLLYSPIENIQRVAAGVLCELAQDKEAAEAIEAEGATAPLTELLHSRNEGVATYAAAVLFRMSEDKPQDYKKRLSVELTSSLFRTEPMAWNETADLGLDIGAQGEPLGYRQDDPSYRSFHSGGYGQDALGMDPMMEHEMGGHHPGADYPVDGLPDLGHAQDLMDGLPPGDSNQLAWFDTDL
# experiment: fluorescence polarization competition vs 5FAM-TCF4(10-53) on full-length beta-catenin
# Procedure: The plate was incubated protected from light for 60 minutes at 20° C. prior to read. Reads were performed on a CLARIOstar plate reader (BMG Labtech) in duplicate, and data were fitted to a 1:1 binding model with hill slope using an in-house script. All provided concentrations are final concentrations.
Starred links: 1 amine or outer side, 2 acyl side, 3 side chain; linkers in the order of their positions; H or OH if unused. Positions of bridges follow the written chain, without caps; N, C: chain ends. Non-standard residues stand in square brackets, D forms with d. Primed or numbered codes have the meaning given here. PyrS2″ = (S)-3-amino-1-((pent-4-en-1-yloxy)carbonyl)pyrrolidine-3-carboxylic acid (stapling residue), C=CCCCOC(=O)N1CC[C@@](N[*:1])(C(=O)[*:2])C1; B5(16) = 2-amino-2-(pent-4-en-1-yl)hept-6-enoic acid = 2,2-bis(4-pentenyl)glycine (stitching residue), C=CCCCC(CCCC=C)(N[*:1])C(=O)[*:2]; B5(4) = 2,2-bis(4-pentenyl)glycine = 2-amino-2-(pent-4-en-1-yl)hept-6-enoic acid (stitching residue), C=CCCCC(CCCC=C)(N[*:1])C(=O)[*:2]; PyrS2 = (S)-3-amino-1-((pent-4-en-1-yloxy)carbonyl)pyrrolidine-3-carboxylic acid, C=CCCCOC(=O)N1CC[C@@](N[*:1])(C(=O)[*:2])C1; B5 = 2-amino-2-(pent-4-en-1-yl)hept-6-enoic acid, C=CCCCC(CCCC=C)(N[*:1])C(=O)[*:2]; Phe(2-Cl) = N[C@@H](Cc1ccccc1Cl)C(=O)O; Bta = N[C@@H](Cc1csc2ccccc12)C(=O)O; αAllylPro = C=CC[C@@]1(C(=O)O)CCCN1; hSer = N[C@@H](CCO)C(=O)O
observable: IC50 (nM)
The reply should contain only the number, in nM.

Solved entries (count: 4):
Ac-[αAllylPro]DF[B5(4)]DDALFT[PyrS2″][Phe(2-Cl)][Bta]S-NH2 (staple 1-4, 4-11, Stapled (stitched) peptide composition; olefin isomer not specified) [I-1157]
36
Ac-[αAllylPro]DF[B5]DDAAFL[PyrS2][Phe(2-Cl)][Bta]T-NH2 (staple 1-4, 4-11, Stapled (stitched) peptide composition; olefin isomer not specified) [I-1145]
18
Ac-[αAllylPro]DF[B5(16)]DDALFS[PyrS2″][Phe(2-Cl)][Bta]Q-NH2 (staple 1-4, 4-11, Stapled (stitched) peptide composition; olefin isomer not specified) [I-1154]
45
Ac-[αAllylPro]DF[B5(4)]DDLAFT[PyrS2″][Phe(2-Cl)][Bta]S-NH2 (staple 1-4, 4-11, Stapled (stitched) peptide composition; olefin isomer not specified) [I-1156]
14

Pending binder:
Recorded IC50 (binder Ac-[αAllylPro]DF[B5]DDAAFS[PyrS2][Phe(2-Cl)][Bta][hSer]-NH2 (staple 1-4, 4-11, Stapled (stitched) peptide composition; olefin isomer not specified) [I-1143] ): 12
